Would you kindly list No. of cured mice for each of these compounds?
# System: Plasmodium berghei
# Assay Info: Antimalarial activity in Plasmodium berghei infected mice (Mus musculus) after subcutaneous 320 mg/kg dose
# Assay type: functional
Lab note: record the figure alone, no unit after it.

Entry CCN(CC)CCCC/N=C1\CC(c2ccc(Cl)cc2Cl)Cc2nc3ccc(Cl)cc3c(O)c21 (stereo not drawn) , system Plasmodium berghei: what No. of cured mice was measured? 5

API: value(readout= No. of cured mice, system= Plasmodium berghei, query= CN(C)CCC/N=C1/c2c([nH]c3ccc(Cl)cc3c2=O)CC(c2ccc(Cl)c(Cl)c2)C1c1ccccc1 (stereo not drawn) ) 5

Query the reported No. of cured mice for Plasmodium berghei; item: O=c1c2c(n(O)c3ccc(Cl)cc13)CC(c1ccc(Cl)c(Cl)c1)C/C2=N\CCCN(CCO)CCO (stereo not drawn) 5

For the record CCN(CC)C1CCC(/N=C2\CC(c3ccc(Cl)c(Cl)c3)Cc3c2c(=O)c2cc(Cl)ccc2n3O)CC1 (stereo not drawn) , what value of No. of cured mice is listed for Plasmodium berghei? 3

Notebook entry, Plasmodium berghei assay: No. of cured mice of O=c1c2c(n(O)c3ccc(Cl)cc13)CC(c1ccc(C(F)(F)F)cc1)C/C2=N\CCCN1CCCCC1 (stereo not drawn) = ? 5

Param readout= No. of cured mice; system= Plasmodium berghei; entry= CC1/C(=N\CCCN(C)C)c2c(nc3ccc(Cl)cc3c2O)CC1c1ccc(Cl)cc1Cl (stereo not drawn) ; returns value. 4

# value lookup — system Plasmodium berghei, readout No. of cured mice, item O=C1CC(c2c(Cl)cccc2Cl)Cc2c1c(=O)c1cc(Cl)ccc1n2O (stereo not drawn) 3

Param readout= No. of cured mice; system= Plasmodium berghei; entry= CC1C(=O)c2c(nc3ccc(Cl)cc3c2O)CC1c1ccc(Cl)cc1Cl (stereo not drawn) ; returns value. 2

For Plasmodium berghei, provide No. of cured mice of O=C1CC(c2ccc(C(F)(F)F)cc2)Cc2c1c(=O)c1cc(Cl)ccc1n2O (stereo not drawn) [FLOXACRINE] please. 5

Field: No. of cured mice (Plasmodium berghei). Entry: O=C1CC(c2ccc(Cl)c(Cl)c2)Cc2c1c(=O)c1cc(Cl)ccc1n2O (stereo not drawn) 5

Form field: No. of cured mice recorded for CCCC/N=C1\CC(c2ccc(Cl)c(Cl)c2)Cc2c1c(=O)c1cc(Cl)ccc1n2O (stereo not drawn) with Plasmodium berghei (enter value) 5

Hello, I am looking for reported No. of cured mice with Plasmodium berghei for COCCC/N=C1\CC(c2cccc(C(F)(F)F)c2)Cc2c1c(=O)c1cc(Cl)ccc1n2O (stereo not drawn) . Could you help? 3

Recall the recorded No. of cured mice for O=C1CC(c2ccc(C(F)(F)F)cc2)Cc2c1c(=O)c1c(Cl)c(Cl)ccc1n2O (stereo not drawn) with Plasmodium berghei and state it. 3

Entry N=C1CC(c2ccc(C(F)(F)F)cc2)Cc2nc3ccc(Cl)cc3c(O)c21 (stereo not drawn) , system Plasmodium berghei: what No. of cured mice was measured? 5

Value wanted: No. of cured mice (Plasmodium berghei) of entry CCN(CC)CCCC/N=C1\CC(c2ccc(C(F)(F)F)cc2)Cc2nc3ccc(Cl)cc3c(O)c21 (stereo not drawn) 5

Recorded No. of cured mice for Cc1ccc(C2C/C(=N\CCCN(C)C)c3c(nc4ccc(Cl)cc4c3O)C2)cc1 (stereo not drawn) with Plasmodium berghei, please? 2

Short answer please: No. of cured mice, Plasmodium berghei, entry CCN(CC)Cc1cccc(/N=C2\CC(c3ccc(Cl)c(Cl)c3)Cc3c2c(=O)c2cc(Cl)ccc2n3O)c1 (stereo not drawn) 4

Identify the measured No. of cured mice of CCN(CC)CCCC(C)/N=C1\CC(c2ccc(C(F)(F)F)cc2)Cc2nc3ccc(Cl)cc3c(O)c21 (stereo not drawn) for Plasmodium berghei. 3

Identify the measured No. of cured mice of CCN(CC)CC(C)(C)C/N=C1\CC(c2ccc(C(F)(F)F)cc2)Cc2c1c(=O)c1cc(Cl)ccc1n2O (stereo not drawn) for Plasmodium berghei. 5

Test system Plasmodium berghei; read-out No. of cured mice; what value for CN(C)CCC/N=C1\CC(c2ccc(C(F)(F)F)cc2)Cc2nc3ccc([N+](=O)[O-])cc3c(O)c21 (stereo not drawn) ? 3

For Plasmodium berghei, provide No. of cured mice of CC1/C(=N\CCCN(C)C)c2c(nc3ccc(Cl)cc3c2O)CC1c1ccc(Cl)c(Cl)c1 (trans isomer) please. 5

Reported No. of cured mice for Plasmodium berghei, given CN(C)c1ccc(C2CC(=O)c3c(n(O)c4ccc(Cl)cc4c3=O)C2)cc1 (stereo not drawn) ? 3

# query: No. of cured mice | item CN(C)CCC/N=C1\CC(c2ccc(Cl)c(Cl)c2)Cc2nc3ccc(Cl)cc3c(O)c21 (stereo not drawn) | system: Plasmodium berghei 5
